Origin of values: BigSolDB 2.1

Conditions: in ethanol, 308.15 K
MEASURE NAME: solubility (mole fraction)

INSERT INTO measurements (smiles_data, measure_name, reported_measurement) VALUES
  ('Cc1c(C(=O)O)cccc1[N+](=O)[O-]', 'solubility (mole fraction)', 0.043);

* * *

Details: in acetonitrile, 293.15 K
MEASURE NAME: solubility (mole fraction)

INSERT INTO measurements (smiles_data, measure_name, reported_measurement) VALUES
  ('Cc1c(C(=O)O)cccc1[N+](=O)[O-]', 'solubility (mole fraction)', 0.0117);

* * *

Conditions: in methanol, 293.15 K
MEASURE NAME: solubility (mole fraction)

INSERT INTO measurements (smiles_data, reported_measurement) VALUES
  ('Cc1c(C(=O)O)cccc1[N+](=O)[O-]', 0.0255);
